tested-on: Human Aldose Reductase (Homo sapiens, UniProt P15121)
test-method-notes: Human Aldose Reductase Inhibition
Assay type: biochemical
stated-conditions: 10^-5; human; read-out: In vitro Aldose Reductase Inhibition
Binary classification by inhibition at 10 µM, with 30% as an inclusive lower bound for criterion met; all other cases are criterion not met.

| compound | tested-on | cat |
| --- | --- | --- |
| Nc1ccc2c(c1)C1(NC(=O)NC1=O)c1ccccc1-2 (racemic) | Human Aldose Reductase (Homo sapiens, UniProt P15121) | criterion met |
| O=C1NC(=O)C2(N1)c1ccccc1-c1ccc(I)cc12 (racemic) | Human Aldose Reductase (Homo sapiens, UniProt P15121) | criterion met |
| Nc1cccc2c1-c1ccccc1C21NC(=O)NC1=O (racemic) | Human Aldose Reductase (Homo sapiens, UniProt P15121) | criterion not met |
| Nc1ccc2c(c1)C1(NC(=O)NC1=O)c1cc(N)ccc1-2 | Human Aldose Reductase (Homo sapiens, UniProt P15121) | criterion not met |
| O=C1NC(=O)C2(N1)c1ccccc1-c1ccc(F)cc12 (racemic) | Human Aldose Reductase (Homo sapiens, UniProt P15121) | criterion met |

## Task API: above_or_equal(metric=inhibition at 10 µM, cutoff=30%) for item O=C1NC(=O)C2(N1)c1ccccc1-c1ccc([N+](=O)[O-])cc12 (racemic)
## Result criterion not met

----------
tested-on: Rat Aldose Reductase (Rattus norvegicus, UniProt P07943)
assay-readout: IC50
Please provide the amount together with its unit, number first.

| compound | tested-on | result |
| --- | --- | --- |
| CS(=O)(=O)c1ccc2c(c1)C1(NC(=O)NC1=O)c1ccccc1-2 (racemic) | Rat Aldose Reductase (Rattus norvegicus, UniProt P07943) | 5000 nM |
| CSc1ccc2c(c1)C1(NC(=O)NC1=O)c1ccccc1-2 (racemic) | Rat Aldose Reductase (Rattus norvegicus, UniProt P07943) | 420 nM |
| O=C1NC(=O)C2(N1)c1ccccc1-c1c(F)cccc12 (racemic) | Rat Aldose Reductase (Rattus norvegicus, UniProt P07943) | 460 nM |

// next item, IC50 requested
Test item O=C1NC(=O)C2(N1)c1ccccc1-c1cccc(F)c12 (racemic) ; Rat Aldose Reductase (Rattus norvegicus, UniProt P07943); reported IC50 was 590 nM

----------
tested-on: Human Aldose Reductase (Homo sapiens, UniProt P15121)
test-method-notes: Human Aldose Reductase Inhibition
Assay type: biochemical
stated-conditions: 10^-6; human; read-out: In vitro Aldose Reductase Inhibition
assay-readout: inhibition at 1 µM

Example entries begin here.
| compound | inhibition at 1 µM |
| --- | --- |
| O=C1NC(=O)C2(N1)c1ccccc1-c1ccc([N+](=O)[O-])cc12 (racemic) | 8% |
| Nc1cccc2c1-c1ccccc1C21NC(=O)NC1=O (racemic) | 20% |
| O=C1NC(=O)C2(N1)c1ccccc1-c1ccc(F)cc12 (racemic) | 81% |
| O=C1NC(=O)C2(N1)c1ccccc1-c1ccc(I)cc12 (racemic) | 77% |
| Nc1ccc2c(c1)C1(NC(=O)NC1=O)c1cc(N)ccc1-2 | 10% |

Reported inhibition at 1 µM ( Nc1ccc2c(c1)C1(NC(=O)NC1=O)c1ccccc1-2 (racemic) ) = 0%

----------
Recorded inhibition at 1 µM, one value per entry.
tested-on: UniProt:P07943
test-method-notes: Rat Aldose Reductase Inhibition
Assay type: biochemical
stated-conditions: 10^-6, read-out: In vitro Aldose Reductase Inhibition
Please provide the amount together with its unit, number first.

Example entries begin here.
| compound | inhibition at 1 µM |
| --- | --- |
| O=C1NC(=O)C2(N1)c1ccccc1-c1ccc(Br)cc12 (racemic) | 62% |
| O=C1NC(=O)C2(N1)c1ccccc1-c1ccc(C(=O)O)cc12 (racemic) | 0% |
| Cc1cccc2c1C1(NC(=O)NC1=O)c1ccccc1-2 (racemic) | 47% |

Reported inhibition at 1 µM ( O=C1NC(=O)C2(N1)c1cc(Br)ccc1-c1ccc(Br)cc12 ) = 76%

----------
Recorded inhibition at 10 µM, one value per entry.
tested-on: Rat Aldose Reductase (Rattus norvegicus, UniProt P07943)
test-method-notes: Rat Aldose Reductase Inhibition
Format: biochemical
stated-conditions: 10^-5, read-out: In vitro Aldose Reductase Inhibition
Just the number please, in %, no unit attached.

Example entries begin here.
| compound | inhibition at 10 µM [%] |
| --- | --- |
| O=C1NC(=O)C2(N1)c1cc(Br)ccc1-c1ccc(Br)cc12 [F] | 94 |
| O=C1NC(=O)C2(N1)c1ccccc1-c1ccc(Br)cc12 (racemic) [E] | 82 |
| Cc1cccc2c1C1(NC(=O)NC1=O)c1ccccc1-2 (racemic) [K] | 85 |

Reported inhibition at 10 µM ( O=C1NC(=O)C2(N1)c1ccccc1-c1ccc(C(=O)O)cc12 (racemic) [N] ) = 54

----------
Recorded inhibition at 100 µM, one value per entry.
tested-on: Human Aldose Reductase (Homo sapiens, UniProt P15121)
test-method-notes: Human Aldose Reductase Inhibition
Format: biochemical
stated-conditions: 10^-4; human; read-out: In vitro Aldose Reductase Inhibition

Example entries begin here.
| compound | tested-on | inhibition at 100 µM |
| --- | --- | --- |
| O=C1NC(=O)C2(N1)c1ccccc1-c1ccc(F)cc12 (racemic) | Human Aldose Reductase (Homo sapiens, UniProt P15121) | 100% |
| Nc1cccc2c1-c1ccccc1C21NC(=O)NC1=O (racemic) | Human Aldose Reductase (Homo sapiens, UniProt P15121) | 50% |
| O=C1NC(=O)C2(N1)c1ccccc1-c1ccc([N+](=O)[O-])cc12 (racemic) | Human Aldose Reductase (Homo sapiens, UniProt P15121) | 65% |
| Nc1ccc2c(c1)C1(NC(=O)NC1=O)c1ccccc1-2 (racemic) | Human Aldose Reductase (Homo sapiens, UniProt P15121) | 43% |
| Nc1ccc2c(c1)C1(NC(=O)NC1=O)c1cc(N)ccc1-2 | Human Aldose Reductase (Homo sapiens, UniProt P15121) | 50% |

// next item, inhibition at 100 µM requested
Reported inhibition at 100 µM ( O=C1NC(=O)C2(N1)c1ccccc1-c1ccc(I)cc12 (racemic) ) = 94%
